Subject Of Test: human CD20 (human) (UniProt P11836)
Sequence (P11836 whole entry): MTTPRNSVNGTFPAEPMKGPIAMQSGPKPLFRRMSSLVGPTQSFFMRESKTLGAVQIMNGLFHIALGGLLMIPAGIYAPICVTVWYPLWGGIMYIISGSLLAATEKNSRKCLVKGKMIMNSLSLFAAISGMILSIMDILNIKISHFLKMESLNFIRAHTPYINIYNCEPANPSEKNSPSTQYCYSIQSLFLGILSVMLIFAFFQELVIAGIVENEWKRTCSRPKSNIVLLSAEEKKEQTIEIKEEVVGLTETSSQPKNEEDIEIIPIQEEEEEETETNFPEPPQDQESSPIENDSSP
Assay Comment: Scatchard analysis, cold antibody against 125I-2H7.v16 on WIL2-S cells, n=3
Measurement Type: Kd (nM)
Write down the numeric answer in nM and omit the unit.

Q: Determine its reported Kd: RITUXAN® (rituximab) (antibody)
Ans: 0.99
